The values you see were collected from ChEMBL document CHEMBL1127848.

System under test: Human immunodeficiency virus type 1 protease (Human immunodeficiency virus 1)
pIC50: −log10 of the molar value.
Reported values of pIC50 for individual entries
Measured endpoint: pIC50

1. CC[C@H](C)[C@H](NC(=O)[C@H](C(C)C)[C@@H](O)[C@H](O)[C@H](CC1CCCCC1)NC(=O)C1CCCCC1)C(=O)NCc1ccccn1
7.30
2. CC(C)[C@@H](C(=O)N[C@H]1Cc2ccccc2[C@H]1O)[C@@H](O)[C@H](O)[C@H](CC1CCCCC1)NC(=O)c1ccccc1OCSc1ccccc1
6.35
3. CNC(=O)N(CC(C)C)CC(O)[C@H](Cc1ccccc1)NC(=O)[C@H](CC(N)=O)NC(=O)OCc1ccccc1 (stereo partly specified)
5.82
4. CC(C)(C)NC(=O)N(Cc1ccncc1)CC(O)[C@H](Cc1ccccc1)NC(=O)[C@H](CC(N)=O)NC(=O)c1ccc2ccccc2n1 (stereo partly specified)
7.72
5. CC(C)(C)NC(=O)N(CC(O)[C@H](Cc1ccccc1)NC(=O)[C@H](CC(N)=O)NC(=O)OCc1ccccc1)C1CCCCC1 (stereo partly specified)
7.54
6. CC(C)[C@@H](C(=O)N[C@H]1Cc2ccccc2[C@H]1O)[C@@H](O)[C@H](O)[C@H](CC1CCCCC1)NC(=O)c1ncccc1OCOc1ccccc1
6.27
7. CC(C)CN(CC(O)[C@H](Cc1ccccc1)NC(=O)[C@H](CC(N)=O)NC(=O)OCc1ccccc1)C(=O)NC(C)(C)C (stereo partly specified)
7.46
8. CC(C)(C)NC(=O)N(Cc1ccccc1)CC(O)[C@H](Cc1ccccc1)NC(=O)[C@H](CC(N)=O)NC(=O)c1ccc2ccccc2n1 (stereo partly specified)
8.52
9. C[C@H](c1ccccc1)N(CC(O)[C@H](Cc1ccccc1)NC(=O)[C@H](CC(N)=O)NC(=O)OCc1ccccc1)C(=O)NC(C)(C)C (stereo partly specified)
5.19
10. CC[C@H](C)[C@H](NC(=O)[C@H](C(C)C)C(O)[C@H](O)[C@H](CC1CCCCC1)NC(=O)c1ccccc1OCOc1ccccc1)C(=O)NCc1nc2ccccc2[nH]1 (stereo partly specified)
7.75
11. CCCCNC(=O)N(CC(C)C)CC(O)[C@H](Cc1ccccc1)NC(=O)[C@H](CC(N)=O)NC(=O)OCc1ccccc1 (stereo partly specified)
6.03

====

# pIC50 values compiled below
System under test: Human immunodeficiency virus type 1 protease (Human immunodeficiency virus 1, UniProt Q72874)
pIC50: −log10 of the molar value.
Measured endpoint: pIC50

1. CC(C)CN(CC(O)[C@H](Cc1ccccc1)NC(=O)[C@H](CC(N)=O)NC(=O)OCc1ccccc1)C(=O)NC(C)C (stereo partly drawn)
6.58
2. CC[C@H](C)[C@H](NC(=O)[C@H](C(C)C)[C@@H](O)[C@H](O)[C@H](CC1CCCCC1)NC(=O)c1ccccc1OCSc1ccccc1)C(=O)NCc1nc2ccccc2[nH]1
7.95
3. CC(C)(C)NC(=O)N(CC(O)[C@H](Cc1ccccc1)NC(=O)[C@H](CC(N)=O)NC(=O)c1ccc2ccccc2n1)C1CCCCC1 (stereo partly drawn)
8.30
4. CC(C)(C)NC(=O)N(Cc1ccccc1)CC(O)[C@H](Cc1ccccc1)NC(=O)[C@H](CC(N)=O)NC(=O)OCc1ccccc1 (stereo partly drawn)
7.72
5. CC(C)[C@@H](C(=O)N[C@H]1Cc2ccccc2[C@H]1O)[C@@H](O)[C@H](O)[C@H](CC1CCCCC1)NC(=O)c1ccccc1OCOc1ccccc1
6.27
6. CC(C)(C)NC(=O)N(Cc1ccncc1)CC(O)[C@H](Cc1ccccc1)NC(=O)[C@H](CC(N)=O)NC(=O)OCc1ccccc1 (stereo partly drawn)
6.98
7. CC(C)CCN(CC(O)[C@H](Cc1ccccc1)NC(=O)[C@H](CC(N)=O)NC(=O)OCc1ccccc1)C(=O)NC(C)(C)C (stereo partly drawn)
7.89
8. CC[C@H](C)[C@H](NC(=O)[C@H](C(C)C)[C@@H](O)[C@H](O)[C@H](CC1CCCCC1)NC(=O)c1ccccc1)C(=O)NCc1nc2ccccc2[nH]1
7.09
9. CC(C)CN(CC(O)[C@H](Cc1ccccc1)NC(=O)[C@H](CC(N)=O)NC(=O)c1ccc2ccccc2n1)C(=O)NC(C)(C)C (stereo partly drawn)
8.22
10. CC[C@H](C)[C@H](NC(=O)[C@H](C(C)C)C(O)[C@H](O)[C@H](CC1CCCCC1)NC(=O)c1ncccc1OCOc1ccccc1)C(=O)NCc1nc2ccccc2[nH]1 (stereo partly drawn)
6.27
11. CCCNC(=O)N(CC(C)C)CC(O)[C@H](Cc1ccccc1)NC(=O)[C@H](CC(N)=O)NC(=O)OCc1ccccc1 (stereo partly drawn)
6.27
12. CC(C)[C@@H](C(=O)N[C@H]1Cc2ccccc2[C@H]1O)[C@@H](O)[C@H](O)[C@H](CC1CCCCC1)NC(=O)c1ncccc1OCSc1ccccc1
5.62
13. CC(c1ccccc1)N(CC(O)[C@H](Cc1ccccc1)NC(=O)[C@H](CC(N)=O)NC(=O)OCc1ccccc1)C(=O)NC(C)(C)C (stereo partly drawn)
5.29
